Molecular target: MAGE-A11:PCF11 interaction (GST-MAGE-A11 and FAM-PCF11_4) (Homo sapiens, UniProt P43364)
Construct: GST-MAGE-A11 MHD (human MAGE-A11 MHD amino acid 218-429); made in house; host or cells: E. coli BL21(DE3)
Sequence (P43364 218-429): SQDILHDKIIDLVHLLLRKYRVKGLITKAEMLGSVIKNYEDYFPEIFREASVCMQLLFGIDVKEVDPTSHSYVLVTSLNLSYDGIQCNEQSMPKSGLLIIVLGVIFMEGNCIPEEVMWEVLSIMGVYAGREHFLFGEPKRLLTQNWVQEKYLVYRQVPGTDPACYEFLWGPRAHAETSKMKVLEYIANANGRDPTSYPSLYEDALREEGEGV
Assay: TR-FRET primary / single point screen at 15 µM
Assay type: binding
Details: single point TR-FRET screening of quinoline compounds against MAGE-A11:PCF11; 15 µM
Description: The TR-FRET assay buffer with a formula of 50 mM Tris pH 7.5, 20 mM MgCl2, 0.1 mg/ml BSA and 1 mM DTT was freshly prepared before each experiment. […] After incubation, the fluorescent emission signals at 520 nm and 490 nm channels of individual wells were measured with a PHERAstar FS plate reader (BMG Labtech; Durham, NC, USA) by using a 340 nm excitation filter, 100 µs delay time, and 200 µs integration time. […] The TR-FRET signals for individual wells were measured with a PHERAstar FS plate reader. […]
percent inhibition (TR-FRET): recorded values
Result Type: percent inhibition (TR-FRET)

molecule=COc1ccc(F)cc1CN(CCCNc1ccnc2cc(Cl)ccc12)Cc1ccccc1 observed_result=6.683
molecule=Cc1csc(CN(CCCNc2ccnc3cc(Cl)ccc23)Cc2ccccc2)n1 observed_result=-10.469
molecule=CC(C)Cc1ccc2c(NCCCNCc3ccco3)ccnc2c1 observed_result=8.8745
molecule=Clc1ccc2c(NCCCN(Cc3ccccc3)Cc3cccs3)ccnc2c1 observed_result=4.744
molecule=CCCN(CCCNc1ccnc2cc(Cl)ccc12)Cc1cncc(Br)c1 observed_result=4.828
molecule=CCCN(CCCNc1ccnc2cc(Cl)ccc12)Cc1cc(OC(F)(F)F)ccc1OC observed_result=15.666
molecule=CCOC(=O)c1cnc2c(Cl)cc(Cl)cc2c1NCCCN1CCOCC1 observed_result=-2.118
molecule=c1ccc(Oc2ccc3c(NCCCNCc4ccco4)ccnc3c2)cc1 observed_result=14.5885
molecule="CSC(C)CCNCCCNc1ccnc2cc(Cl)ccc12 (stereo not drawn)" observed_result=13.499
molecule=CCCN(CCCNc1ccnc2cc(Cl)ccc12)Cc1c(C)cc(C)cc1C observed_result=35.4339
molecule=Cc1ccc(C)c(CN(CCCNc2ccnc3cc(Cl)ccc23)Cc2ccccc2)c1 observed_result=20.217
molecule=CCCN(CCCNc1ccnc2cc(C(F)(F)F)ccc12)Cc1ccc[nH]1 observed_result=30.6641
molecule=CCCN(CCCNc1ccnc2cc(Cl)ccc12)Cc1c[nH]c2ccccc12 observed_result=26.2256
molecule=CCCN(CCCNc1ccnc2cc(C(F)(F)F)ccc12)Cc1ccc(C)s1 observed_result=19.0825
molecule=CCCN(CCCNc1c2ccc(Cl)cc2nc2ccc(OC)cc12)Cc1cccc2ccccc12 observed_result=-40.7667
molecule=CCCN(CCCNc1c2ccc(Cl)cc2nc2ccc(OC)cc12)Cc1ccc(F)c(F)c1 observed_result=0.9703
molecule=CCCN(CCCNc1ccnc2cc(C(F)(F)F)ccc12)Cc1cccc(OC(F)(F)F)c1 observed_result=9.085
molecule=CCCN(CCCNc1ccnc2cc(C(F)(F)F)ccc12)Cc1ccc(OC)cc1 observed_result=22.8956
molecule=Clc1ccc2c(NCCCNCc3cc4ccccc4o3)ccnc2c1 observed_result=17.9065
molecule=CCCN(CCCNc1c2ccc(Cl)cc2nc2ccc(OC)cc12)Cc1cccnc1 observed_result=-23.4028
molecule=COc1cccc(CN(CCCNc2ccnc3cc(Cl)ccc23)Cc2ccccc2)c1 observed_result=-9.05
molecule=CCCN(CCCNc1ccnc2cc(Cl)ccc12)Cc1ccc(CC)cc1 observed_result=30.1342
molecule=Fc1ccc(Oc2ccc3c(NCCCNCc4ccco4)ccnc3c2)cc1 observed_result=9.365
molecule=CCCN(CCCCCC(=O)OC)CCCNc1c2ccc(Cl)cc2nc2ccc(OC)cc12 observed_result=-37.4059
molecule=Clc1ccc2c(NCCCN(Cc3ccccc3)Cc3ccccc3)ccnc2c1 observed_result=14.7648
molecule=CCCN(CCCNc1ccnc2cc(Cl)ccc12)CC(CC)CC observed_result=14.1686
molecule=COc1ccc2nc3cc(Cl)ccc3c(NCCCNCc3cccc(C)c3)c2c1 observed_result=-7.0891
molecule=CCCN(CCCNc1ccnc2cc(Cl)ccc12)CCCSC observed_result=7.824
molecule=CCCN(CCCNc1c2ccc(Cl)cc2nc2ccc(OC)cc12)Cc1cccc(OC)c1O observed_result=-81.9559
molecule=CCCCNCCCNc1ccnc2cc(C(F)(F)F)ccc12 observed_result=18.5367
molecule=Clc1ccc2c(NCCCN(Cc3ccccc3)Cc3cccc4c3OCO4)ccnc2c1 observed_result=3.49
molecule=CCCN(CCCNc1c2ccc(Cl)cc2nc2ccc(OC)cc12)Cc1sccc1C observed_result=-83.8109
molecule=CCCN(CCCNc1ccnc2cc(Cl)ccc12)Cc1c2ccccc2cc2ccccc12 observed_result=15.4935
molecule=CCCN(CCCNc1ccnc2cc(C(F)(F)F)ccc12)Cc1ccc2[nH]ccc2c1 observed_result=32.8899
molecule=CCCN(CCCNc1ccnc2cc(C(F)(F)F)ccc12)Cc1ccc(F)c(F)c1 observed_result=13.8395
molecule=CCCN(CCCNc1c2ccc(Cl)cc2nc2ccc(OC)cc12)Cc1cccc(C#N)c1 observed_result=-94.5429
